TESTED_TARGET: Inward rectifier potassium channel 2 (Mus musculus) (UniProt P35561)
Sequence (P35561 whole entry, looked up): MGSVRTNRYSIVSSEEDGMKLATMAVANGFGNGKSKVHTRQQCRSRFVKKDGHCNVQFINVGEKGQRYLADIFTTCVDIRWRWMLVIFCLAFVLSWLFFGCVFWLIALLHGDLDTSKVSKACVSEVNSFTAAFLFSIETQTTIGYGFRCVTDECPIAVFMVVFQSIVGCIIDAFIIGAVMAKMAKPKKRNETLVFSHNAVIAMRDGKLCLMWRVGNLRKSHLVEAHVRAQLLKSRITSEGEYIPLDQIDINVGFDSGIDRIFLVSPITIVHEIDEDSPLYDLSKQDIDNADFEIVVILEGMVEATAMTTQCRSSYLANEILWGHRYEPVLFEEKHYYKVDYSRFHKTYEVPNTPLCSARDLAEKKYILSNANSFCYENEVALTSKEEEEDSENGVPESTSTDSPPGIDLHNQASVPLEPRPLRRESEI
METHOD_SUMMARY: Kir2.1 potassium channel inhibitors, dose response, cell-based, HEK293, thallium flux, FluxOR fluorescence (AID 624350)
RUN_CONDITIONS: HEK293 Kir2.1, FluxOR thallium flux fluorescence, 20 min
Activity calls are given as the source filed them.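 How the source made its calls: active means over 50% block of the Kir2.1 potassium channel by compound at 30 µM; inactive means the rest.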
Log the outcome using a class from active, inactive

Record excerpt, results attached:
QUERY_SMILES | TESTED_TARGET | ASSIGNED_CLASS
Cc1ccc(C)c(OCCCNCc2ccc(Cl)c(Cl)c2)c1 | Inward rectifier potassium channel 2 (Mus musculus) (UniProt P35561) | active
O=[N+]([O-])c1ccc(CNS(=O)(=O)c2ccc(Br)cc2)cc1 | Inward rectifier potassium channel 2 (Mus musculus) (UniProt P35561) | active
O=S(=O)(c1ccc(Br)cc1)N1CCc2ccccc21 | Inward rectifier potassium channel 2 (Mus musculus) (UniProt P35561) | active
Cc1ccc(C)c(OCCCNCc2ccccc2)c1 | Inward rectifier potassium channel 2 (Mus musculus) (UniProt P35561) | active
O=S(=O)(NCc1cc(F)cc(F)c1)c1ccc(Br)cc1 | Inward rectifier potassium channel 2 (Mus musculus) (UniProt P35561) | active

Q: Could you check what this test reported for C[C@@H](NS(=O)(=O)c1ccc(Br)cc1)c1cccc2ccccc12 ?
Ans: active

Q: Could you check what this test reported for O=S(=O)(NCCc1c[nH]c2ccccc12)c1ccc(Br)cc1 ?
Ans: active

Q: Could you check what this test reported for CCN(Cc1ccncc1)S(=O)(=O)c1ccc(Br)cc1 ?
Ans: active

Q: Could you check what this test reported for O=S(=O)(NCc1ccc(F)c(F)c1)c1ccc(Br)cc1 ?
Ans: active

Q: Could you check what this test reported for COc1ccccc1CCNS(=O)(=O)c1ccc(Br)cc1 ?
Ans: active

Q: Could you check what this test reported for O=S(=O)(c1cccc(Br)c1)N1CCCc2ccccc21 ?
Ans: active

Q: Could you check what this test reported for O=S(=O)(NC1Cc2ccccc2C1)c1ccc(Br)cc1 ?
Ans: active

Q: Could you check what this test reported for Cc1ccc(C)c(OCCCNC[C@@H](C)O)c1 ?
Ans: inactive

Q: Could you check what this test reported for CC(C)Cn1c(Cc2ccccc2)nc2ccccc21 ?
Ans: active

Q: Could you check what this test reported for O=S(=O)(c1ccccc1F)N1CCCc2ccccc21 ?
Ans: active

Q: Could you check what this test reported for Cc1ccc(C)c(OCCCN(C)Cc2ccccc2)c1 ?
Ans: active

Q: Could you check what this test reported for O=S(=O)(c1cccc(F)c1)N1CCCc2ccccc21 ?
Ans: active

Q: Could you check what this test reported for Cc1ccc(C)c(OCCCNCC2CCCCC2)c1 ?
Ans: active
